Biological target: RAF1 (human)
Attribute measured: Kd (nM)
Answers are plain numbers, in nM.

Request: Name the recorded Kd for COc1cc2ncnc(Oc3cccc(NC(=O)Nc4cc(C(C)(C)C(F)(F)F)on4)c3)c2cc1OC .
Response: 39

* * *

Target: DYRK2 (human) (UniProt Q92630)
Sequence (Q92630 whole entry, looked up): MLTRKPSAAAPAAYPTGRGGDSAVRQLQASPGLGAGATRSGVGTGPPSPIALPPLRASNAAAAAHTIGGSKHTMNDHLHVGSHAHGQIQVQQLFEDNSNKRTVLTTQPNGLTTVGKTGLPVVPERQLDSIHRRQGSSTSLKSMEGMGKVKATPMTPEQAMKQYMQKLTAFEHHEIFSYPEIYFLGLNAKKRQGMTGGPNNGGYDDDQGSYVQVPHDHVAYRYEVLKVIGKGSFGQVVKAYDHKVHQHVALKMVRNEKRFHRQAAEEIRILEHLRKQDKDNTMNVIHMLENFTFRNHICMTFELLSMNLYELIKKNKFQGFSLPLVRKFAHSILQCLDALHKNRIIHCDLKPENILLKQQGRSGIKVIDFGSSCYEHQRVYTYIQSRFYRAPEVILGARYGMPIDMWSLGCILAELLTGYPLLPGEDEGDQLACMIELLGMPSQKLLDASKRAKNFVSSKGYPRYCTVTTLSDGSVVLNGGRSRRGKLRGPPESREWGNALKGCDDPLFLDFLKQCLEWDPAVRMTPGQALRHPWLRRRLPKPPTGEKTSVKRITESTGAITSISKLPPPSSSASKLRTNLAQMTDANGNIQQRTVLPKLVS
Attribute measured: pKd
Numbers only, as −log10 of the molar value.

Request: Dear colleague, I am looking for the recorded pKd of the following molecule: COc1cc2ncnc(Oc3cccc(NC(=O)Nc4cc(C(C)(C)C(F)(F)F)on4)c3)c2cc1OC
Response: 4.57

* * *

Biological target: PTK2 (human) (UniProt Q05397)
Sequence (Q05397 whole entry, looked up): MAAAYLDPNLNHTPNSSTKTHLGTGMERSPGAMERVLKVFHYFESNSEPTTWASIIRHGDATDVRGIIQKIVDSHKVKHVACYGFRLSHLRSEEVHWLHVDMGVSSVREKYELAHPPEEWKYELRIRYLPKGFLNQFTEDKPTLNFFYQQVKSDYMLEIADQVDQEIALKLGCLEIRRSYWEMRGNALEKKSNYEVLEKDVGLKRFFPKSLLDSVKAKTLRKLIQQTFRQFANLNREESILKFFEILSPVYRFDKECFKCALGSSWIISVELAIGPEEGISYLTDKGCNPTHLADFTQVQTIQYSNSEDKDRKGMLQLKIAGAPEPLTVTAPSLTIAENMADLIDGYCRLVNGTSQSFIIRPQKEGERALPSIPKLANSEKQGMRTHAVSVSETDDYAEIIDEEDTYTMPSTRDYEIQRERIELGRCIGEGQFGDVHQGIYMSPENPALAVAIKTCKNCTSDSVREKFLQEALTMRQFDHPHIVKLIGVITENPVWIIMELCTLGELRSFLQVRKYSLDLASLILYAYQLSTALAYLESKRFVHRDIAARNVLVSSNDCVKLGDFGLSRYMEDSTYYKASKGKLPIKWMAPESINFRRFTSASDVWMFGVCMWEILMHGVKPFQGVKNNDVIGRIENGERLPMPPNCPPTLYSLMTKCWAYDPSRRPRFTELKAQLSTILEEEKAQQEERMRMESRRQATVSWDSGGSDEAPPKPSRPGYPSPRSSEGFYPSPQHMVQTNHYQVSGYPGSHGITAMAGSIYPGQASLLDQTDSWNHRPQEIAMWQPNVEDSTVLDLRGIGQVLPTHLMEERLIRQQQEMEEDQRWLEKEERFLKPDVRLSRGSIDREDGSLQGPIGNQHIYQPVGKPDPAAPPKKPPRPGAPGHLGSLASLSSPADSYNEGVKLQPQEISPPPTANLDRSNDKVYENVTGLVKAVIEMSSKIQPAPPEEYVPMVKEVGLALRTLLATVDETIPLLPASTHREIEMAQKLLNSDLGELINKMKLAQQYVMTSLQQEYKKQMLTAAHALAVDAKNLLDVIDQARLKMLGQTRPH
Attribute measured: Kd (µM)
Numbers only, in µM.

Request: Identify the measured Kd of COc1cc2ncnc(Oc3cccc(NC(=O)Nc4cc(C(C)(C)C(F)(F)F)on4)c3)c2cc1OC for PTK2 (human) (UniProt Q05397).
Response: 7.5
